# System: A2780
# experimental-details: Cellular proliferation assay (Alamar blue), A2780
# Assay type: cell-based
# test-parameters: Homo sapiens, 10% FCS, 72 hours with compound, Alamar blue 24 h, read-out: A2780 (cellular proliferation assay, Table 4) (converted)
# Protocol: […] functional properties of these compounds were tested in cellular proliferation assays on a panel of different cell lines in the presence of 10% FCS serum (37° C. and 5% (v/v) CO2). In a first step these cells were seeded and incubated for 24 hours in the absence of compound. In the second step the cells were incubated for 72 hours with the compounds to be tested for 72 hours. The viable cell number was finally assessed in a standard Alamar blue cell viability assay. […]
Please respond with reported IC50 for every item in the list.
Provide the reading as a plain figure in µM.

# get_value(readout='IC50', item= COCCNC(=O)c1ccc2cc1CN1CCC[C@H]1C(=O)NCc1cccc(c1)-c1ccnc(n1)N2 ) 4.68

Sample COc1ccc2cc1CN(C)CCNC(=O)[C@@H]1CCCN1Cc1cc(NCCc3ccccc3)cc(c1)Nc1nccc-2n1 — what was its IC50? 6.61

Fill blank: measured IC50 of the molecule COc1cc2cc(c1)Nc1nccc(n1)-c1ccc(cc1)CN(C)CCCNC(=O)C1CCN(CC1)C2 is ____. 6.31

* * *

# target-of-assay: AuroraB (h) (Homo sapiens)
# Sequence (Q96GD4 whole entry): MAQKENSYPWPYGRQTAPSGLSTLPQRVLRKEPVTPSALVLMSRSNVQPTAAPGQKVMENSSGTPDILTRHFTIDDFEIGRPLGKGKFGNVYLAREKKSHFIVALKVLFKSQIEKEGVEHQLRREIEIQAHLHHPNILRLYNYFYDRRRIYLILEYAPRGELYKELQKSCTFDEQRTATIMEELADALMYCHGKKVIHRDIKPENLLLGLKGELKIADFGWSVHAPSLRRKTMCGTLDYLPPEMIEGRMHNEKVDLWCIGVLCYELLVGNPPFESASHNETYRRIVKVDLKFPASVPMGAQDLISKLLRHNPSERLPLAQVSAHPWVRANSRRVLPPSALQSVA
# experimental-details: Aurora-B human kinase inhibition, SPA
# Type: biochemical
# test-parameters: read-out: AuroraB pIC50 (converted)
measure: IC50

I would be grateful if you could share the reported IC50 for COc1ccc2cc1CN(C)CCCNC(=O)[C@@H]1CCCN1Cc1cccc(c1)Nc1nccc-2n1 [Compound 180] . > 10 µM

Reported IC50 for COCCNC(=O)c1ccc2cc1CN1CCC[C@H]1C(=O)NCc1cccc(c1)-c1ccnc(n1)N2 [Compound 40] : what is it? > 10 µM

Reported IC50, compound COc1ccc2cc1CN(C)CCNC(=O)C1CCN(CC1)Cc1cc(cc(N3CCOCC3)c1)Nc1nccc-2n1 [Compound 77] : ____ > 10 µM

Endpoint output: IC50 of COc1ccc2cc1CN(C)CCCNC(=O)[C@@H]1CCCN1Cc1cc(NCCc3ccccc3)cc(c1)Nc1nccc-2n1 [Compound 167] . Value? > 10 µM

Suppose we examine the compound COc1ccc2cc1CN(C)CCNC(=O)C1CCN(CC1)Cc1cc(Br)cc(c1)Nc1nccc-2n1 [Compound 79] ; what IC50 value has been reported? > 10 µM

Tell me the measured IC50 of O=C1NCCOc2cccc(c2)-c2ccnc(n2)Nc2ccc(N3CCOCC3)c(c2)CN2CCC1CC2 [Compound 94] , please. > 10 µM

Could you share which IC50 value was measured for O=C1NCCCOc2cccc(c2)-c2ccnc(n2)Nc2ccc(N3CCOCC3)c(c2)CN2C[C@H](O)C[C@@H]12 [Compound 99] ? > 10 µM

Field request: IC50 | item: CN1CCCNC(=O)C2CCN(CC2)Cc2cc(Br)cc(c2)Nc2nccc(n2)-c2ccc(cc2)C1 [Compound 63] > 10 µM

Given COc1ccc2cc1CNCCCNC(=O)C1CCN(CC1)Cc1cc(ccc1N1CCOCC1)Nc1nccc-2n1 [Compound 3] , state its recorded IC50. 1.55 µM

Which measured IC50 value corresponds to COc1cc2cc(c1)Nc1nccc(n1)-c1ccc(OC)c(c1)CN(C)CCNC(=O)[C@@H]1CCCN1C2 [Compound 162] ? 6.61 µM

For O=C1CN2CCN(CC2)Cc2cccc(c2)Nc2nccc(n2)-c2cccc(c2)CN1 [Compound 196] , what is its reported IC50? > 10 µM

Form field: reported IC50 of CC(C)Nc1cc2cc(c1)Nc1nccc(n1)-c1ccc(cc1)CN(C)CCNC(=O)C1CCN(CC1)C2 [Compound 61] 8.32 µM

Returns the measured IC50 for the input compound. Input: CC(C)Nc1cc2cc(c1)Nc1nccc(n1)-c1ccc(cc1)CN(C)CCCNC(=O)C1CCN(CC1)C2 [Compound 65] > 10 µM

# get_value(readout='IC50', item= O=C1NCc2cccc(c2)-c2ccnc(n2)Nc2cccc(c2)CN[C@H]1CO [Compound 187] ) > 10 µM

Value lookup for IC50; key = COc1cc2cc(c1)Nc1nccc(n1)-c1ccc(cc1)CN(C)CCCNC(=O)CN1CCN(CC1)C2 [Compound 133] > 10 µM

# input compound: COc1cc2cc(c1)Nc1nccc(n1)-c1ccc(OC)c(c1)CN(C)CCCNC(=O)C1CCN(CC1)C2 [Compound 73] ; wanted: its IC50 > 10 µM

What IC50 value was documented for this compound, O=C1NCCCc2cc(ccn2)-c2ccnc(n2)Nc2cccc(c2)CN[C@H]1CO [Compound 19] ? > 10 µM

Recorded IC50 of COc1ccc2cc1CN(C)CCCNC(=O)[C@H](CO)NCc1cc(Br)cc(c1)Nc1nccc-2n1 [Compound 112] , please. 3.31 µM

Entry under review: COc1cc2cc(c1)Nc1nccc(n1)-c1ccc(OC)c(c1)CN(C)CCCNC(=O)CN1CCN(CC1)C2 [Compound 140] . Reported IC50? > 10 µM

// lookup IC50 for COc1ccc2cc1CN(C)CCNC(=O)CN1CCN(CC1)Cc1cc(NCCc3ccccc3)cc(c1)Nc1nccc-2n1 [Compound 138] > 10 µM

Entry under review: O=C1NCc2cccc(c2)-c2ccnc(n2)Nc2cc(ccc2Cl)CN2C[C@H](O)C[C@@H]12 [Compound 52] . Reported IC50? > 10 µM

Query: IC50; subject: CC(C)Nc1cc2cc(c1)Nc1nccc(n1)-c1ccc(cc1)CN(C)CCCNC(=O)[C@H](CO)NC2 [Compound 111] > 10 µM

Can you share its IC50? I mean this compound: COc1ccc2cc1CN(C)CCCNC(=O)[C@H](CO)NCc1cccc(c1)Nc1nccc-2n1 [Compound 118] 6.61 µM

Which IC50 is listed for CN(C)C(=O)c1cc2cc(c1)Nc1nccc(n1)-c1cccc(c1)CNC(=O)[C@@H]1CCCN1C2 [Compound 35] ? > 10 µM

Quick one: IC50 of CN1CCNC(=O)[C@@H]2CCCN2Cc2cc(Br)cc(c2)Nc2nccc(n2)-c2ccc(cc2)C1 [Compound 155] ? > 10 µM

IC50 lookup needed for COc1ccc2cc1CN(C)CCNC(=O)CN1CCN(CC1)Cc1cc(cc(NC(C)C)c1)Nc1nccc-2n1 [Compound 142] , thanks. > 10 µM

Given CN1CCCNC(=O)CN2CCN(CC2)Cc2cccc(c2)Nc2nccc(n2)-c2ccc(cc2)C1 [Compound 143] , state its recorded IC50. > 10 µM

Give the measured IC50 of C[C@@H]1NCc2cc(ccc2N2CCOCC2)Nc2nccc(n2)-c2ccc(cc2)OCCCNC1=O [Compound 5] . > 10 µM

Dear colleague, I am looking for the recorded IC50 of the following compound: O=C1NCCCOc2cccc(c2)-c2ccnc(n2)Nc2ccc(N3CCOCC3)c(c2)CN2CCC1CC2 [Compound 93] > 10 µM

Any idea what IC50 was measured for CN1CCCNC(=O)[C@H](CO)NCc2cc(cc(N3CCOCC3)c2)Nc2nccc(n2)-c2ccc(cc2)C1 [Compound 10] ? 9.33 µM

* * *

For each entry below, report its IC50 value.
# target-of-assay: CDK4/CyclinD1 (h) (Homo sapiens, UniProt P11802)
# Sequence (P11802 whole entry): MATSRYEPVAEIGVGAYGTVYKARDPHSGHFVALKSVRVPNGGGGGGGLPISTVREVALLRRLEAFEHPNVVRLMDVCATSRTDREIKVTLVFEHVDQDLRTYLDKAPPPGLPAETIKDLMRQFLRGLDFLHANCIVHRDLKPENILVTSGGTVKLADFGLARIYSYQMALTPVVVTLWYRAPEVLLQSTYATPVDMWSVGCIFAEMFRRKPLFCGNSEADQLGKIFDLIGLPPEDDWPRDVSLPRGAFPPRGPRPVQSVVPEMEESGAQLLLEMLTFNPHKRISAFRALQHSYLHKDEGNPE
# Sequence (P24385 whole entry partner): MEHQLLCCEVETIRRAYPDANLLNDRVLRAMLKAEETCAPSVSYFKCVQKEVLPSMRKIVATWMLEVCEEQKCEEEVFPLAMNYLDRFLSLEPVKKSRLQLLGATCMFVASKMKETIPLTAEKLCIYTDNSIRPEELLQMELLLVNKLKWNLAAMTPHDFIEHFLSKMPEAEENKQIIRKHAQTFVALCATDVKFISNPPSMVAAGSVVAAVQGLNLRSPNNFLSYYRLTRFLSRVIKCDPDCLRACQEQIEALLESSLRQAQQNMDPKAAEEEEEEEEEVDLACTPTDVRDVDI
# experimental-details: CDK4/CyclinD1 human kinase inhibition, SPA with GST-pRb substrate
# Type: biochemical
# test-parameters: read-out: CDK4 pIC50 (converted)

Look up IC50 for this compound: O=C1NCCNc2cc(ccn2)-c2ccnc(n2)Nc2ccc(N3CCOCC3)c(c2)CN2CCCC12 (centres unmarked) [Compound 161] > 10 µM

Query: IC50; subject: CN1CCNC(=O)[C@H](CO)NCc2cccc(c2)Nc2nccc(n2)-c2ccc(cc2)C1 [Compound 114] > 10 µM

# IC50 lookup, item CN1CCN(C(=O)c2cc3cc(c2)Nc2nccc(n2)-c2cccc(c2)CNC(=O)[C@@H]2CCCN2C3)CC1 [Compound 34] 8.71 µM

Fill blank: measured IC50 of the compound C[C@@H]1NCCc2cccc(c2)-c2ccnc(n2)Nc2ccc(N3CCOCC3)c(c2)CNC1=O [Compound 100] is ____. 0.2 µM

Dear colleague, I am looking for the recorded IC50 of the following compound: CN1CCN(C)c2ccc(cn2)-c2ccnc(n2)Nc2cc(c3c(c2)OCO3)CN2CCC[C@H]2C1=O [Compound 168] 2.14 µM

Item COc1ccc2cc1CNCCCNC(=O)CN1CCN(CC1)Cc1cc(ccc1N1CCOCC1)Nc1nccc-2n1 [Compound 13] has what recorded IC50? > 10 µM

Reported IC50, compound O=C1CN2CCN(CC2)Cc2cc(ccc2N2CCOCC2)Nc2nccc(n2)-c2cccc(c2)CN1 [Compound 20] : ____ > 10 µM

Data request, read-out IC50, for O=C1NCc2cccc(c2)-c2ccnc(n2)Nc2cc(ccc2Cl)CN2CCC[C@@H]12 [Compound 51] > 10 µM

Need IC50, item COc1cc2cc(c1)Nc1nccc(n1)-c1ccc(OC)c(c1)CN(C)CCNC(=O)[C@@H]1CCCN1C2 [Compound 162] > 10 µM

Can you share its IC50? I mean this compound: O=C1NCc2cccc(c2)-c2ccnc(n2)Nc2cc(ccc2Cl)CN2C[C@H](O)C[C@@H]12 [Compound 52] > 10 µM

Could you tell me which IC50 is on file for COc1ccc2cc1CNCCNC(=O)[C@@H]1CCCN1Cc1cc(ccc1N1CCOCC1)Nc1nccc-2n1 [Compound 178] ? > 10 µM
